Target: T1, human MSLN-R1-his protein (human, UniProt Q13421 296-390)
T1 construct: Made in HEK293E cells, purified on nickel column; also called hMSLN-R1-his; human MSLN-R1 protein; not shown: His tag
T1 chain: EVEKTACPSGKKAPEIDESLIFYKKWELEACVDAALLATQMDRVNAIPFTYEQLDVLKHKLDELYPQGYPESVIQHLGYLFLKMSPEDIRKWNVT
Assay: ELISA, coated antigen, antibody 2 nM
MEASURED PROPERTY: OD450
Please give only the number in your answer, with no unit.

Input: Give OD450 for S009-F7.11.11 chimeric antibody (antibody, human IgG1, kappa, V domains shown, Human-murine chimeric antibody, human IgG1/kappa constant regions) VH: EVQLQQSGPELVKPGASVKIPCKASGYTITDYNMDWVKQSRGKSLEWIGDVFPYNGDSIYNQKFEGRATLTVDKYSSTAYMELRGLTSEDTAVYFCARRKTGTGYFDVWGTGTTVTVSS VL: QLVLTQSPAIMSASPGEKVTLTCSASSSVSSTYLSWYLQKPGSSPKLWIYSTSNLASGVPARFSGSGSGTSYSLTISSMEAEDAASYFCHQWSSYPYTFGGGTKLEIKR
Output: 0.05

Input: Give me measured OD450, please, for this binder: S009-F7.30.5 chimeric antibody (antibody, human IgG1, kappa, V domains shown, Human-murine chimeric antibody, human IgG1/kappa constant regions) VH: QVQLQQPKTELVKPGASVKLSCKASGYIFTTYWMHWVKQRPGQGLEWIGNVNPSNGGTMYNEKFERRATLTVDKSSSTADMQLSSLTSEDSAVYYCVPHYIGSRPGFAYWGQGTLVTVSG VL: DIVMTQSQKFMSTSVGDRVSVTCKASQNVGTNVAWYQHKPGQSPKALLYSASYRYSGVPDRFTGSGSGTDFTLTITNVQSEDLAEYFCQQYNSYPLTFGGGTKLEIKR
Output: 0.06

Input: Supply recorded OD450 for S009-F7.61.21 chimeric antibody (antibody, human IgG1, kappa, V domains shown, Human-murine chimeric antibody, human IgG1/kappa constant regions) VH: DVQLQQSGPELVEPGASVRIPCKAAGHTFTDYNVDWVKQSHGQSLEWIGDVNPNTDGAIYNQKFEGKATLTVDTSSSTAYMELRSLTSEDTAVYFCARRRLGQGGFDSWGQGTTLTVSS VL: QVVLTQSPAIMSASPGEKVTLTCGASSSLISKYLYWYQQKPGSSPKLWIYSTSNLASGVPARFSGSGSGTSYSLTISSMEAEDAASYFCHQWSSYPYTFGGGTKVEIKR here.
Output: 0.05

Input: Give the reported OD450 for this binder. S009-F7.69.8 chimeric antibody (antibody, human IgG1, kappa, V domains shown, Human-murine chimeric antibody, human IgG1/kappa constant regions) VH: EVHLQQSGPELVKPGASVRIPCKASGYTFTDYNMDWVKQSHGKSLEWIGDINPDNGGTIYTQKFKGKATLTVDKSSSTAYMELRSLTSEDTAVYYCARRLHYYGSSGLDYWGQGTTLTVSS VL: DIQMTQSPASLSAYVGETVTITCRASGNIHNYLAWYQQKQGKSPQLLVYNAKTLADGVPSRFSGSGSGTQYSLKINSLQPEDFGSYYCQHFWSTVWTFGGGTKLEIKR
Output: 0.04

Input: Note down OD450 recorded for S009-F7.6.17 chimeric antibody (antibody, human IgG1, kappa, V domains shown, Human-murine chimeric antibody, human IgG1/kappa constant regions) VH: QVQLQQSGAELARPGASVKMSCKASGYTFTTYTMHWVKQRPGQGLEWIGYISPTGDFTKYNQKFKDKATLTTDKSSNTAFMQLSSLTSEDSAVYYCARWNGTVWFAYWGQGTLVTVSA VL: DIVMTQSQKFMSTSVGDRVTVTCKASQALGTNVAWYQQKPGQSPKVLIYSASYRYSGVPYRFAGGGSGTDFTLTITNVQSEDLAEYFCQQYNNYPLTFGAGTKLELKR
Output: 0.05

Input: Specify OD450 for S009-F7.12.13 chimeric antibody (antibody, human IgG1, kappa, V domains shown, Human-murine chimeric antibody, human IgG1/kappa constant regions) VH: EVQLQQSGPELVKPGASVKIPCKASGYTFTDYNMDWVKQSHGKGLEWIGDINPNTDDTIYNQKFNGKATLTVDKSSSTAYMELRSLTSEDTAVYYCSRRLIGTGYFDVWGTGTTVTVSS VL: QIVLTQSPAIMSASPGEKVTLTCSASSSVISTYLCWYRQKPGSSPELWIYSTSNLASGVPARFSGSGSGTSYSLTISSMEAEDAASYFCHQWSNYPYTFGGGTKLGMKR and stop.
Output: 0.05

Input: Entry S009-F7.2.3 chimeric antibody (antibody, human IgG1, kappa, V domains shown, Human-murine chimeric antibody, human IgG1/kappa constant regions) VH: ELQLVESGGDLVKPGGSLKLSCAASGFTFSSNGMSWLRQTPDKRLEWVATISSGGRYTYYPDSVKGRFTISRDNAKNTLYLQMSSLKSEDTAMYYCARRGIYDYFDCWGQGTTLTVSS VL: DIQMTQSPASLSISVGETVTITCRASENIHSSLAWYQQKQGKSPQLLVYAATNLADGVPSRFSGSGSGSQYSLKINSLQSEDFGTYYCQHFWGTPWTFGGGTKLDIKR needs its OD450 filled in; supply it.
Output: 0.08

Input: Please give measured OD450 of the following entry: S009-F7.26.15 chimeric antibody (antibody, human IgG1, kappa, V domains shown, Human-murine chimeric antibody, human IgG1/kappa constant regions) VH: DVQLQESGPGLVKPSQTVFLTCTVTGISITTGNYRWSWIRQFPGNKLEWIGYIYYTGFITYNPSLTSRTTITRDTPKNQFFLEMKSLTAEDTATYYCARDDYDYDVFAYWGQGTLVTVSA VL: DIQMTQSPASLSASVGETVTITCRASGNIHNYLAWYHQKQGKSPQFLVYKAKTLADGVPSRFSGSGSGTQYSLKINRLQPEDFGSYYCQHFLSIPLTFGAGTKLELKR
Output: 0.05

Input: Input S009-F7.66.12 chimeric antibody (antibody, human IgG1, kappa, V domains shown, Human-murine chimeric antibody, human IgG1/kappa constant regions) VH: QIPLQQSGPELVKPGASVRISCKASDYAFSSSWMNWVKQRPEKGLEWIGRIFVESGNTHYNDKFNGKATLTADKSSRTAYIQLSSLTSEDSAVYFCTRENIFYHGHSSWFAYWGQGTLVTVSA VL: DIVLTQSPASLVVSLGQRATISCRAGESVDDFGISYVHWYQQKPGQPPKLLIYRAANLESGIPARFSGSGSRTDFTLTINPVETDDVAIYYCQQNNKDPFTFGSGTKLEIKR , output reported OD450.
Output: 0.05

Input: Using the record for S009-F7.65.13 chimeric antibody (antibody, human IgG1, kappa, V domains shown, Human-murine chimeric antibody, human IgG1/kappa constant regions) VH: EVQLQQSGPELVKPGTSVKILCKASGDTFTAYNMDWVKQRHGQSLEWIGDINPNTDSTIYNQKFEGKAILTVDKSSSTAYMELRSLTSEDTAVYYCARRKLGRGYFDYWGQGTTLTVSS VL: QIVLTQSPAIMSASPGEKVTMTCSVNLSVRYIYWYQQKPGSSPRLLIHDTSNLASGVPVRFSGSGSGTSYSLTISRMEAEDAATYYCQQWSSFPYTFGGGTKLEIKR , state its measured OD450.
Output: 0.05

Input: Look up and report measured OD450 for this entry: S009-F7.33.24 chimeric antibody (antibody, human IgG1, kappa, V domains shown, Human-murine chimeric antibody, human IgG1/kappa constant regions) VH: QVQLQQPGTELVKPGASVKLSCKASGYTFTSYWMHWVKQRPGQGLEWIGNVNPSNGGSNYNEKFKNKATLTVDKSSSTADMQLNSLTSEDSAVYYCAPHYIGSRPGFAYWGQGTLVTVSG VL: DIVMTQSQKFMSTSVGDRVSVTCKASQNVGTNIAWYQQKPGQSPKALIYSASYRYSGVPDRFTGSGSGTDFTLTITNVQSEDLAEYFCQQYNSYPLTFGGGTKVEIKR
Output: 0.06

Values compiled from patent US20250250357A1.
